Source: paper PMC6002064

Experiment: Pharmacokinetic interaction study of oral DAS with nutraceuticals in acetic acid-induced UC Wistar rats (UPLC-MS/MS of plasma)
Assay type: in vivo
Details: male, Wistar, rat, DAS in plasma, DAS 25 mg/kg oral, n = 5, mean±SD, read-out: t½ (converted)
Assay endpoint: half-life (min)
Reply numerically in min, unit not repeated.

Prompt: Quick one: half-life for Cc1nc(Nc2ncc(C(=O)Nc3c(C)cccc3Cl)s2)cc(N2CCN(CCO)CC2)n1 ?
Response: 1070

###

Assay: Pharmacokinetic interaction study of oral DAS with nutraceuticals in acetic acid-induced UC Wistar rats (UPLC-MS/MS of plasma)
Assay type: in vivo
Details: male, Wistar, rat, plasma, time 0.5 h, DAS 25 mg/kg oral, read-out: Conc*10 (ng/mL plasma), average DAS plasma concentration
Assay endpoint: concentration at 0.5 h (ng/mL)
Field: numeric (ng/mL). Do not append units.

Prompt: Entry under review: Cc1nc(Nc2ncc(C(=O)Nc3c(C)cccc3Cl)s2)cc(N2CCN(CCO)CC2)n1 . Reported concentration at 0.5 h?
Response: 236

###

Assay: Pharmacokinetic interaction study of oral DAS with nutraceuticals in acetic acid-induced UC Wistar rats (UPLC-MS/MS of plasma)
Type: in vivo
Details: male, Wistar, rat, plasma, time 6 h, DAS 25 mg/kg oral, read-out: Conc*10 (ng/mL plasma), average DAS plasma concentration
Procedure: Calibration standards, QC samples, as well as blank plasma samples were centrifugated at 6000 rpm for 5 min. Following the separation of the methanolic supernatants, the residues of individual samples were separately washed with 0.5 mL volumes of methanol. The combined supernatant and washing of each sample were cleaned-up by passing onto STRATA® C 18-E (200 mg, 3 mL) SPE cartridges, previously preconditioned with 3.0 mL methanol followed by 3.0 mL ultrapure water. […]
Assay endpoint: concentration at 6 h (ng/mL)
Give the value, in units of ng/mL, as a plain number.

Prompt: Which value of concentration at 6 h has been reported for Cc1nc(Nc2ncc(C(=O)Nc3c(C)cccc3Cl)s2)cc(N2CCN(CCO)CC2)n1 [DAS, Dasatinib] in the records?
Response: 69.6

###

Experiment: Stability of DAS in rat plasma QC samples
Format: in vitro ADME
Conditions: rat plasma QC samples; -30°C, 3 cycles; 450 ng/mL in rat plasma; n = 6; read-out: Mean recovery (%) ±RSD, freeze-thaw stability
Assay endpoint: recovery at 3 freeze-thaw cycles, 450 ng/mL (%)
Lab book: enter the figure in %, no units written.

Prompt: Which measured recovery at 3 freeze-thaw cycles, 450 ng/mL value corresponds to Cc1nc(Nc2ncc(C(=O)Nc3c(C)cccc3Cl)s2)cc(N2CCN(CCO)CC2)n1 ?
Response: 99.5

###

Test: Stability of DAS in rat plasma QC samples
Assay type: in vitro ADME
Settings: rat, rat plasma QC samples; all handling and storage conditions of Table 6; 3 and 450 ng/mL in plasma; read-out: recovery values in stability studies
Protocol: QC samples spiked at two concentration levels of DAS, low (3 ng/mL) and high (450 ng/mL), were analyzed (n = 6) in order to assess the drug stability in plasma. […] Moreover, freeze-thaw stability was assessed as follows, plasma samples were frozen at around -30°C and then thawed at room temperature for three cycles. […]
Assay endpoint: recovery

Prompt: Fill in the blank: the reported recovery of Cc1nc(Nc2ncc(C(=O)Nc3c(C)cccc3Cl)s2)cc(N2CCN(CCO)CC2)n1 is ____.
Response: ≥ 96.1%

###

Assay: Pharmacokinetic interaction study of oral DAS with nutraceuticals in acetic acid-induced UC Wistar rats (UPLC-MS/MS of plasma)
Format: in vivo
Details: male, Wistar, rat, DAS in plasma, DAS 25 mg/kg oral, n = 5, mean±SD, nutraceutical given orally 30 min before DAS (olive oil II: DAS suspended in it)
Assay endpoint: Cmax

Prompt: Find the recorded Cmax belonging to Cc1nc(Nc2ncc(C(=O)Nc3c(C)cccc3Cl)s2)cc(N2CCN(CCO)CC2)n1 and report it.
Response: 230 ng/mL

###

Assay: Pharmacokinetic interaction study of oral DAS with nutraceuticals in acetic acid-induced UC Wistar rats (UPLC-MS/MS of plasma)
Assay type: in vivo
Details: male, Wistar, rat, DAS in plasma, DAS 25 mg/kg oral, n = 5, mean±SD, read-out: MRT0-∞
Assay endpoint: MRT inf (h)
Hi! Could you send only the number? It should be in h, unit omitted.

Prompt: Query: MRT inf; subject: Cc1nc(Nc2ncc(C(=O)Nc3c(C)cccc3Cl)s2)cc(N2CCN(CCO)CC2)n1
Response: 24.4
